# assayInfo: Inhibition of recombinant type N-terminal His6-tagged 2 R67 DHFR expressed in Escherichia coli BL21 using DHF as substrate by spectrophotometry
measurementLabel: Ki (µM)
Your answer should be a plain number; it is taken to be in µM.

Check out these entries, answers already filled in.
O=C(O)c1ccc2[nH]c(-c3ccc(OCC(O)COc4ccc(-c5nc6cc(C(=O)O)ccc6[nH]5)cc4)cc3)nc2c1: 4
O=C(O)c1ccc2[nH]c(-c3ccc(OCCCCCOc4ccc(-c5nc6cc(C(=O)O)ccc6[nH]5)cc4)cc3)nc2c1: 2
O=C(O)c1ccc2cc(O)ccc2c1: 190

query: Recorded Ki for Nc1ccc2cc(C(=O)O)ccc2c1 , please?
result: 51

query: Look up Ki: O=C(O)c1cc2nccnc2s1
result: 61

query: I would be grateful if you could share the reported Ki for Oc1nncc2ccccc12 .
result: 530

query: Fill blank: measured Ki of the compound COc1cc2c(OC)cccc2cc1C(=O)O is ____.
result: 55

query: Requested field: Ki. Item: O=C(O)c1ccc2[nH]nnc2c1
result: 260

query: Requested field: Ki. Item: O=C(O)c1ccc2[nH]cnc2c1
result: 80
